Protocol summary: Human plasma stability of Z-Phe-Lys-PABC-DOX (Test IV)
Format: in vitro ADME
Protocol conditions: freshly drawn human plasma; no release over 7 hours
Counter-ions that a name gives are not always drawn.
Experimental readout: half-life

Exam item: Write down half-life measured for item COc1cccc2c1C(=O)c1c(O)c3c(c(O)c1C2=O)C[C@@](O)(C(=O)CO)C[C@@H]3O[C@H]1C[C@H](NC(=O)OCc2ccc(NC(=O)[C@H](CCCCN)NC(=O)[C@H](Cc3ccccc3)NC(=O)OCc3ccccc3)cc2)[C@H](O)[C@H](C)O1 [Z-Phe-Lys-PABC-DOX, Z-Phe-Lys-PABC-DOX-HCl]
Marked response: > 14.6 days
